Parameter: melting point. Scope: all listed entries.
Provide only the numeric value, understood in °C.

Known results for compounds:
compound	numeric value
CC(=O)CC(C)(C)C	-64
Cc1cc(-c2cc(C)c(O)c(C)c2)cc(C)c1O	222
N#CCC(=O)O	66

stdin: So what does the record say about melting point for CN(C)[C@@H]1C(O)=C(C(N)=O)C(=O)[C@@]2(O)C(O)=C3C(=O)c4c(O)cccc4[C@@](C)(O)[C@H]3[C@H](O)[C@@H]12 ?
stdout: 184

stdin: Consider next the compound ON=C1CCCC1 in the same way.
stdout: 57.8

stdin: Query CNC(=O)Oc1ccc2c(c1)[C@]1(C)CCN(C)[C@@H]1N2C next
stdout: 106

stdin: Please give the result for CC1=C(C(=O)Nc2ccccc2)CCCO1 too.
stdout: 110

stdin: Then Cc1ccccc1CO ?
stdout: 38

stdin: What about this compound? CC(C)(O)c1ccccc1
stdout: 36

stdin: Same for O=CNC1CCCCC1
stdout: 39.5

stdin: Subsequent entry: O=c1ccc(=O)[nH][nH]1
stdout: 306

stdin: Cool, now CCCOc1ccc([N+](=O)[O-])cc1N
stdout: 49
